Molecular target: 5-HT2C receptor (Rattus norvegicus, UniProt P08909)
Sequence (P08909 33-460): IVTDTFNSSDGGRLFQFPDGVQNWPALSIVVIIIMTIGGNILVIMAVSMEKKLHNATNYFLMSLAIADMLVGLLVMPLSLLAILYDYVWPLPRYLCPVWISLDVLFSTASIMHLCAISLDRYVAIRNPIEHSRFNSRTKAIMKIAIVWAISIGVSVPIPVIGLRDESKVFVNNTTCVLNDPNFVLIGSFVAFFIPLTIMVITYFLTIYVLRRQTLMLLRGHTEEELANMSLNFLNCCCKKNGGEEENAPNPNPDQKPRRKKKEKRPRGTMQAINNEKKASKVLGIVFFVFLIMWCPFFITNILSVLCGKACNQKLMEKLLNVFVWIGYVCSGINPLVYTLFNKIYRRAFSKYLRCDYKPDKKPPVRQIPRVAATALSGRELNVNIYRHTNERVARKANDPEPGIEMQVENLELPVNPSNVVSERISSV
Assay: [3H]-5-HT binding assay (method a), affinity to the 5-HT2C receptor
Design: expressed in transfected cells
Settings: Ki from IC50 in nM, read-out: Pki (Pki=-log10 Ki), 5-HT2C, Method a (converted)
measured_parameter: log10(Ki) (log10 of the value in nM)
In our notation, the value equals log10 of Ki in nM.

Provide the reported log10(Ki) of each entry below, same order.
1. N=C(N)c1cc2cccc(OC3CCCC3)c2o1 [O-Cyclo-pent H H H H]
2. N=C(N)c1cc2cccc(Cl)c2o1 [Cl H H H H]
3. N=C(N)c1cc2ccc(F)cc2o1 [Example 6, 6-Fluorobenzofuran-2-carboxamidine]
4. CCOc1cccc2oc(C(=N)N)cc12 [Example 2, 4-Ethoxybenzofuran-2-carboxamidine]

Result:
2.70
2.20
2.20
2.20
